Biological target: Kappa-type opioid receptor (Homo sapiens)
Sequence (P41145 whole entry): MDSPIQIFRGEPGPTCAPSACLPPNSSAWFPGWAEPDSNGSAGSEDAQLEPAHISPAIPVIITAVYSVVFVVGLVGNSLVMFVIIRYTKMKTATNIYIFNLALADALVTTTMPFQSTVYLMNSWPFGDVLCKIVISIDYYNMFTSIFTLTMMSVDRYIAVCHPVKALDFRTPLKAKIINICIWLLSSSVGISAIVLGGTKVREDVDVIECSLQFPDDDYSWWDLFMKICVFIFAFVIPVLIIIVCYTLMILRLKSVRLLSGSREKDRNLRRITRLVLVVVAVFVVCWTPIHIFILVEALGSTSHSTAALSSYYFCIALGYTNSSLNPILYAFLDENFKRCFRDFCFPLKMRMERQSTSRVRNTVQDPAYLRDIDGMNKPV
pKi: −log10 of the molar value.
// label = YES if pKi is not less than 7, otherwise NO

{"molecule": "CN1CN2CC[C@]34c5c6ccc(O)c5OC3C(=O)CC[C@]24C1C6 (stereo partly drawn)", "class-assignment": "NO"}
{"molecule": "O=C1CC[C@]23C4[C@@H](CN(CC5CC5)C[N@@]42)[C@]32c3cccc(O)c3OC12 (stereo partly drawn)", "class-assignment": "YES"}
{"molecule": "O=C1CC[C@@]23C4Cc5ccc(O)c6c5[C@@]2(CCN3CN4CCc2ccccc2)C1O6 (stereo partly drawn)", "class-assignment": "YES"}
{"molecule": "C[C@@H](O)C[C@H]1NC2Cc3ccc(O)c4c3[C@]35CCN1[C@]23CCC(=O)C5O4 (stereo partly drawn)", "class-assignment": "NO"}
{"molecule": "N[C@@]12CCC(=O)C3Oc4c(O)ccc5c4[C@@]31CCN(CC1CC1)C2C5 (stereo partly drawn)", "class-assignment": "YES"}
{"molecule": "CC(=O)/C=C1/NC2Cc3ccc(O)c4c3[C@]35CCN1[C@]23CCC(=O)C5O4 (stereo partly drawn)", "class-assignment": "NO"}
{"molecule": "CC(=O)C(C(C)=O)=C1N(CC2CC2)C2Cc3ccc(O)c4c3[C@]35CCN1[C@]23CCC(=O)C5O4 (stereo partly drawn)", "class-assignment": "NO"}
